System: C57bl/6J Mice
Assay Remarks: C57bl6 mouse OGTT
Format: in vivo
Experimental Context: 3 mg/kg
Reported Metric: Dose Responses C57 OGTT (%)
One number for each entry, in %.

Before answering, review these 3 worked examples.
>  <Chemical String>
Cc1cc2cc(F)cc(COc3ccc(CCC(=O)O)c(C)c3C)c2o1

>  <Reported Metric>
Dose Responses C57 OGTT

>  <Numeric Readout>
−29

$$$$
>  <Chemical String>
CCc1cc2cc(OC(F)(F)F)cc(COc3ccc(CCC(=O)O)c(C)c3C)c2o1

>  <Reported Metric>
Dose Responses C57 OGTT

>  <Numeric Readout>
6

$$$$
>  <Chemical String>
CCc1cc2cc(F)cc(COc3ccc(CCC(=O)O)c(C)c3C)c2o1

>  <Reported Metric>
Dose Responses C57 OGTT

>  <Numeric Readout>
−15

$$$$

Need Dose Responses C57 OGTT for each of these compounds.
1. CCc1cc2cc(Cl)cc(COc3ccc(CCC(=O)O)c(C)c3C)c2o1
2. CCCc1cc2cc(F)cc(COc3ccc(CCC(=O)O)c(C)c3C)c2o1

−30
−16
